Cited source for all entries: BigSolDB 2.1

Settings: in toluene, 298.15 K
MEASURED_METRIC: solubility (mole fraction)
Please give only the number in your answer, with no unit.

Task item: Entry `O=C1NC(=O)c2ccccc21` needs its solubility (mole fraction) filled in; supply it.
Reply: 0.000577

---

Conditions: in acetone, 295.65 K
MEASURED_METRIC: solubility (mole fraction)

Task item: Entry `O=C1NC(=O)c2ccccc21` needs its solubility (mole fraction) filled in; supply it.
Reply: 0.0119

---

Conditions: in n-butanol, 318.15 K
MEASURED_METRIC: solubility (mole fraction)
Please give only the number in your answer, with no unit.

Task item: Entry `O=C1NC(=O)c2ccccc21` needs its solubility (mole fraction) filled in; supply it.
Reply: 0.0054
